Data provenance is PubChem BioAssay (NCI).

test: NCI Yeast Anticancer Drug Screen. Data for the mec2-1 strain (AID 157); conditions: S. cerevisiae mec2-1 strain, at 50.0 µM (retest, dose inferred, filed as 5.0)
Compounds without any hit were thinned out: in the full panel of roughly 79,000, 15% have a hit. The source made the active and inactive calls. No stated cut-off is given here; in the data, active means growth inhibition above about 70%; inactive means the rest.
Write down one outcome, taken from active, inactive

Below, 3 molecules whose answers are already recorded.
Fc1ccccc1CN1COc2c(cc(Cl)c3cccnc23)C1    inactive
CCN(CC)COC(=S)S    active
COC(=O)C1(C)CCCC2(C)C3CC(=O)C(C(C)C)=CC3(O)CCC12 (stereo unspecified)    inactive

Prompt line: Hi, do you know how NC(CCCCCC(N)C(=O)O)C(=O)O (stereo unspecified) came out in this test?
Response line: inactive

----------
experiment: NCI Yeast Anticancer Drug Screen. Data for the mlh1 rad18 strain (AID 175); conditions: S. cerevisiae mlh1 rad18 strain growth inhibition; at 50.0 µM; active compounds read high
About 79,000 compounds went through this panel and 15% of them were active in at least one assay; those are over-represented in the sample as a whole.
Provide the reported growth inhibition of each item.
Answers are plain numbers, in %.

Solved entries (count: 5):
COc1ccc(-c2csc(C)n2)cc1OC    8.5
CCOC(=O)c1sc2[n+](c1C)C(=O)/C(=C/c1ccc([N+](=O)[O-])cc1)S2    97
COC(=O)c1nc(N)nc(C(=O)OC)c1C(=O)c1ccccc1    0
O=S(=O)(ON=C1C=CC(=NOS(=O)(=O)c2ccccc2)C=C1)c1ccccc1    96
Cc1c2cnccc2c(C)c2c1c1ccccc1n2CCOC(=O)c1ccccc1    91.5

Batch request: growth inhibition per item, same order as input.
1. CN(C)CC1CCC2=C(C1=O)C(c1ccc(Cl)c(Cl)c1)C1=C(CCC(CN(C)C)C1=O)O2 (stereo unspecified)
2. CCCCCCCN(CCCCCCC)CC(=O)NC(=O)c1ccccc1
3. O=C(NNc1ccccc1)c1ccccc1Cl
4. CCCCOc1ccc(CC(O)CN2CCCCC2C)cc1 (stereo unspecified)
5. CCC(c1ccc(OC)cc1)C(CC)c1ccc(O)c(CN(C)C)c1 (stereo unspecified)

Response line:
[48.5, 99.3, 95.6, 51, 83.5]

Per the records, this compound ( `Cc1c2cnccc2c(C)c2c1c1ccccc1n2Cc1ccccc1` ) has growth inhibition equal to 62.7

----------
experiment: NCI Yeast Anticancer Drug Screen. Data for the sgs1 mgt1 strain (AID 161);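 further: 0% = growth of cultures given vehicle only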; details: S. cerevisiae sgs1 mgt1 strain, at 5.0 µM (retest, dose inferred, filed as 0.5), active compounds read high
The panel holds about 79,000 compounds, 15% with a hit somewhere; the sample as a whole holds those more often.
reported_metric: growth inhibition (%)
Answers are plain numbers, in %.

O=C(Nc1ccccc1)c1cccc2ccccc12    6

Batch request: growth inhibition per item, same order as input.
1. CN(Cc1cnc2nc(N)nc(N)c2n1)c1ccc(C(=O)NC(CCC(=O)O)C(=O)O)cc1C(F)(F)F (stereo not given)
2. OCc1c(-c2cccc3ccccc23)sc(-c2cccc3ccccc23)c1CO
3. O=S(Nc1ccccc1Br)c1ccccc1 (stereo not given)
4. O=C1C=C/C(=C(/c2ccc(O)c(O)c2)c2ccccc2S(=O)(=O)O)C=C1O

Response line:
-12
44
-3
-2

----------
experiment: NCI Yeast Anticancer Drug Screen. Data for the cln2 rad14 strain (AID 165);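 further: 0% = growth equal to vehicle treated cultures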; conditions: S. cerevisiae cln2 rad14 strain, at 50.0 µM (retest, dose inferred, filed as 5.0)
Compounds without any hit were thinned out: in the full panel of roughly 79,000, 15% have a hit. Active and inactive are the calls of the source. Cut-off read from the data, not from the text of the source: active = growth inhibition above about 70%; inactive = the rest. Where a SMILES comes first, the peptide text is derived from it. The star is where a group is joined. Cbz = O=C(OCc1ccccc1)*
Write down one outcome, taken from label 1 for active, label 0 for inactive

Below, 2 compounds whose answers are already recorded.
CCCCN(CCCC)CC(O)c1ccc2cc(Cl)c3ccccc3c2c1 (centres undefined)    label 1
C[n+]1c(-c2ccc(/C=N\NC(=O)c3ccc(C(=O)N/N=C/c4ccc(-c5cn6ccsc6[n+]5C)cc4)cc3)cc2)cn2ccsc21    label 1

Shift focus to the following entry.
Prompt line: Hi, do you know how CCOC(=O)CNC(=O)CNC(=O)CNC(=O)OCc1ccccc1 (Cbz-Gly-Gly-Gly-OEt) came out in this test?
Response line: label 0
